Tested on: human iPSC neurons and astrocytes treated with 5 μM sAβ42s
test description: Focused small molecule screen, double culture (neuron, astrocyte), rescue from sAβ42s toxicity, high content imaging
Type: cell-based
run conditions: 6.25 μM compound; double culture; 5 μM sAβ42s
Where a SMILES comes first, the peptide text is derived from it. [ ]: non-standard residue; d: D form. Nle = CCCC[C@H](N)C(=O)O
# Lookup of reported % MAP2 rescue keyed by entry
Respond with the bare value in %.

Below are worked cases with known answers.
compound	% MAP2 rescue [%]
C=C[C@@]1(C)CC(=O)[C@]2(O)[C@@]3(C)[C@@H](O)CCC(C)(C)[C@@H]3[C@H](OC(=O)CCN(C)C)[C@H](OC(C)=O)[C@@]2(C)O1.Cl	39
N#CC(c1ccnc(NCCc2cccnc2)n1)c1nc2ccccc2s1 (centres unmarked)	49

Which % MAP2 rescue is listed for `O=C1Nc2ccc3ncsc3c2/C1=C/Nc1ccc(S(=O)(=O)Nc2ccccn2)cc1` ?
48

Do the same for `Cc1ccc(S(=O)(=O)/C=C/C#N)cc1` please
34

CCCC[C@@H](C=O)NC(=O)[C@H](CC(C)C)NC(=O)[C@H](CC(C)C)NC(C)=O [Ac-Leu-Leu-Nle-CHO] (Ac-Leu-Leu-[Nle]-aldehyde) ?
31

* * *

Test system: human iPSC neurons, astrocytes and microglia treated with 5 μM sAβ42s
test description: Focused small molecule screen, triple culture (neuron, astrocyte, microglia), rescue from sAβ42s toxicity
Assay type: cell-based
run conditions: Homo sapiens, iPSC, 12.50 μM compound, read-out: % B3T rescue
Reported percent rescue from sAβ42s toxicity at 12.5 µM by item:
Express the result in % but write the number alone.

molecule	test target	reported measurement
O=C(NOC[C@H](O)CO)c1ccc(F)c(F)c1Nc1ccc(I)cc1F	human iPSC neurons, astrocytes and microglia treated with 5 μM sAβ42s	43
CN1CCN(CCOc2cc(OC3CCOCC3)c3c(Nc4c(Cl)ccc5c4OCO5)ncnc3c2)CC1	human iPSC neurons, astrocytes and microglia treated with 5 μM sAβ42s	35
CC(C)CCC[C@@H](C)[C@H]1CC[C@H]2[C@@H]3CCC4=CC(=NO)CC[C@]4(C)[C@H]3CC[C@]12C	human iPSC neurons, astrocytes and microglia treated with 5 μM sAβ42s	33
COc1cc([C@@H]2c3cc4c(cc3[C@@H](O[C@@H]3O[C@@H]5CO[C@@H](c6cccs6)O[C@H]5[C@H](O)[C@H]3O)[C@H]3COC(=O)[C@H]23)OCO4)cc(OC)c1O [Teniposide]	human iPSC neurons, astrocytes and microglia treated with 5 μM sAβ42s	50

Data request, read-out percent rescue from sAβ42s toxicity at 12.5 µM, for `Oc1ccc(C=Cc2cc(O)cc(O)c2)cc1`
54
